Read-out: E-selectin (Homo sapiens)
Assay: BSK_LPS_Eselectin: BioMAP Diversity Plus: LPS Assay for Eselectin Biomarker Activity (AID 2283077)
Details: primary human HUVEC with PBMC; actives raise or lower the signal
Calls of active or inactive are those of the source. The calls were made as follows: active = hit-call score of the fitted dose curve at least 0.9, where 1 is the maximum; inactive = score below 0.9.
measured.property: AC50

Problem: Supply reported AC50 belonging to this compound: OCCN1CCOCC1
Result: inactive

Problem: Supply reported AC50 belonging to this compound: CCCCCCCC1CCCC1=O (stereo not drawn)
Result: inactive

Problem: Supply reported AC50 belonging to this compound: CCn1cc(C(=O)O)c(=O)c2ccc(C)nc21
Result: inactive

Problem: Supply reported AC50 belonging to this compound: C[C@]12CC[C@@H]3c4ccc(O)cc4CC[C@H]3[C@@H]1CC[C@@H]2O
Result: inactive

Problem: Supply reported AC50 belonging to this compound: CC(C)(C)c1cccc(O)c1
Result: inactive

Problem: Supply reported AC50 belonging to this compound: CC(C)CCCC(C)(C)O
Result: inactive

Problem: Supply reported AC50 belonging to this compound: O=S1(=O)CC(Cl)(Cl)C(Cl)(Cl)C1
Result: 1.1 µM (active)

Problem: Supply reported AC50 belonging to this compound: COC(=O)c1ccc(C(=O)OC)cc1
Result: inactive

Provide the reported AC50 of each entry below, same order.
1. O=C(O)C(F)(F)C(F)(F)C(F)(F)C(F)(F)C(F)(F)C(F)(F)C(F)(F)C(F)F
2. O=C(O)C(F)(F)OC(F)(F)C(F)(F)OC(F)(F)C(F)(F)C(F)(F)C(F)(F)F

Result:
inactive
inactive

Provide the reported AC50 of each entry below, same order.
1. CCCCN(CCO)CCO
2. C=C(C)C(N)=O
3. C=C1CC/C=C(\C)CC[C@@H]2[C@@H]1CC2(C)C

Result:
inactive
inactive
21.2 µM (active)

Reference source for all entries: PubChem BioAssay (EPA / NIEHS)
